Cited source for all entries: the supplement of paper PMC10646978

test system: RAW-Dual (murine macrophage reporter line); assay: NF-kB reporter (SEAP) activity fold change vs agonist alone; higher = enhanced NF-kB activity; conditions: modulator concentration 10 µM; agonist: LPS 0.1 ug/mL
Please enter Met where NF-kB reporter is greater than or equal to 1, and Not met where it is lower.

Record excerpt, results attached:
* CCN(CC)S(=O)(=O)c1ccc(C(=O)Nc2cc(C)nn2-c2nc(C)c(C)c(=O)[nH]2)cc1 | Not met
* COCCN1CCC(NC(=O)c2cccc3ccccc23)CC1 | Met
* CS(=O)(=O)O.Cc1c(O)cccc1C(=O)N[C@@H](CSc1ccccc1)[C@H](O)CN1C[C@H]2CCCC[C@H]2C[C@H]1C(=O)NC(C)(C)C | Not met

Test whether the molecule Cc1cc(=O)n2c(-c3cccc(NC(=O)C4CCCO4)c3)csc2n1 (stereo not given) records NF-kB reporter of 1 or higher.
Met

Test whether the molecule "O=C1CCc2cc(OCCCCc3nnnn3C3CCCCC3)ccc2N1" records NF-kB reporter of 1 or higher.
Met
